target: BARHL2 DBD T278N/T285I (PBX1) (human, UniProt Q9NY43 227-293, T278N;T285I); experiment: HT-SELEX; SELEX buffer: 10.4 mM Tris-HCl pH 7.5, 51.4 mM NaCl, 1.4 mM MgCl2, 4% glycerol, 100 uM EGTA, 0.7 mM DTT, 3.7 ug/ml poly-dI-dC, 1.4 uM ZnSO4; room temperature (2); high values mean tight binding; details: protein: recombinant; dsDNA, one strand shown
Sequence (Q9NY43 227-293 T278N/T285I): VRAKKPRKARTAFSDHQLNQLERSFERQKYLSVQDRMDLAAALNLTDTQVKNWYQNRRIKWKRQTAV
Reported endpoint: binding signal
Don't forget the unit after the number, please.

Solved cases (4 shown):
INPUT: I would be grateful if you could share the reported binding signal for "TAATGG" .
OUTPUT: 9.1 fold enrichment

INPUT: Record: "TAAGTG"
OUTPUT: 2.5 fold enrichment

INPUT: Record: "TAAGCG"
OUTPUT: 1.4 fold enrichment

INPUT: Record: "TAAATG"
OUTPUT: 3.3 fold enrichment

Consider now this further sequence.
INPUT: I would be grateful if you could share the reported binding signal for "TAACCG" .
OUTPUT: 3.7 fold enrichment

* * *

molecular target: BARHL2 DBD T278I/T285S (DLX1) (human, UniProt Q9NY43 227-293, T278I;T285S); assay: HT-SELEX; SELEX buffer: 10.4 mM Tris-HCl pH 7.5, 51.4 mM NaCl, 1.4 mM MgCl2, 4% glycerol, 100 uM EGTA, 0.7 mM DTT, 3.7 ug/ml poly-dI-dC, 1.4 uM ZnSO4; room temperature (2); high values mean tight binding; settings: protein: recombinant; dsDNA, one strand shown
Sequence (Q9NY43 227-293 T278I/T285S): as the sequence (Q9NY43 227-293 T278N/T285I) above, with N52I, I59S counted along it
Consider the following sequences and their measured binding signal readings.
Give the quantity in fold enrichment, number only.

Solved cases (3 shown):
INPUT: I would be grateful if you could share the reported binding signal for "TAATCG" .
OUTPUT: 10.9

INPUT: Record: "TAAATG"
OUTPUT: 4

INPUT: Record: "TAACCG"
OUTPUT: 1.7

Further cases:
INPUT: I would be grateful if you could share the reported binding signal for "TAATTG" .
OUTPUT: 16.2

INPUT: Record: "TAAACG"
OUTPUT: 4.7

* * *

molecular target: BARHL2 DBD T278I/T285V (HOXB13) (human, UniProt Q9NY43 227-293, T278I;T285V); test: HT-SELEX; SELEX buffer: 10.4 mM Tris-HCl pH 7.5, 51.4 mM NaCl, 1.4 mM MgCl2, 4% glycerol, 100 uM EGTA, 0.7 mM DTT, 3.7 ug/ml poly-dI-dC, 1.4 uM ZnSO4; room temperature (2); high values mean tight binding; conditions: protein: recombinant; dsDNA, one strand shown
Sequence (Q9NY43 227-293 T278I/T285V): as the sequence (Q9NY43 227-293 T278N/T285I) above, with N52I, I59V counted along it
Consider the following sequences and their measured binding signal readings.
Give the quantity in fold enrichment, number only.

Solved cases (4 shown):
INPUT: I would be grateful if you could share the reported binding signal for "TAAACG" .
OUTPUT: 2.4

INPUT: Record: "TAATGG"
OUTPUT: 7.7

INPUT: Record: "TAAATG"
OUTPUT: 4.3

INPUT: Record: "TAAGTG"
OUTPUT: 4

Consider now this further sequence.
INPUT: I would be grateful if you could share the reported binding signal for "TAATTG" .
OUTPUT: 13.3

* * *

target: BARHL2 DBD T278I/T285M (HOXA3) (human, UniProt Q9NY43 227-293, T278I;T285M); test: HT-SELEX; SELEX buffer: 10.4 mM Tris-HCl pH 7.5, 51.4 mM NaCl, 1.4 mM MgCl2, 4% glycerol, 100 uM EGTA, 0.7 mM DTT, 3.7 ug/ml poly-dI-dC, 1.4 uM ZnSO4; room temperature (2); high values mean tight binding; settings: protein: recombinant; dsDNA, one strand shown
Sequence (Q9NY43 227-293 T278I/T285M): as the sequence (Q9NY43 227-293 T278N/T285I) above, with N52I, I59M counted along it
Reported endpoint: binding signal

INPUT: Write down the reported binding signal of "TAACCG" , test system: BARHL2 DBD T278I/T285M (HOXA3) (human, UniProt Q9NY43 227-293, T278I;T285M).
OUTPUT: 1.5 fold enrichment

Further cases:
INPUT: Write down the reported binding signal of "TAATCG" , test system: BARHL2 DBD T278I/T285M (HOXA3) (human, UniProt Q9NY43 227-293, T278I;T285M).
OUTPUT: 11.4 fold enrichment

INPUT: Record: "TAAGCG"
OUTPUT: 2.4 fold enrichment

INPUT: Record: "TAAGTG"
OUTPUT: 5 fold enrichment
